# Test system: LATS kinase activity
# experiment.notes: LATS-BS under stimuli regulating Hippo signaling (in vitro luciferase assay and live cell luciferase imaging)
# Format: cell-based, human
# condition.context: cell lysates (luciferase assay) and live cells (BLI)
endpoint: LATS-BS response to signals modulating Hippo pathway activity

compound	measured.result
CNc1nc(-c2ccc3c(N)n[nH]c3c2)cc(N2C[C@@H](C(=O)NC3CCCCC3)CC[C@H]2C)n1	responded
O=CC[C@@H](O)[C@H](O)[C@H](O)CO	responded
CCCCCCCCCCCCCC(=O)O[C@@H]1[C@@H](C)[C@@]2(O)[C@@H](C=C(CO)C[C@]3(O)C(=O)C(C)=C[C@@H]23)[C@@H]2C(C)(C)[C@]12OC(C)=O [TPA, 12-O-tetradecanoylphorbol-13-acetate]	responded
CCCCCCCCCCCCC/C=C/[C@@H](O)[C@@H](N)COP(=O)(O)O [S1P, sphingosine1-phosphophate]	responded
